target: B2 bradykinin receptor (Homo sapiens); experiment: Percent agonistic activity in rabbit jugular vein expressing B2 receptor relative to bradykinin; assay type: functional; conditions: Oryctolagus cuniculus
Response key: 1 means Relative affinity >= 0.1%; 0 means Relative affinity < 0.1%.

# substance, testedTarget, cat
records = [
    ("H-RPPGLSPFR-OH", "B2 bradykinin receptor (Homo sapiens)", 1),
    ("H-RPPGYSPFR-OH", "B2 bradykinin receptor (Homo sapiens)", 1),
    ("H-RPPGFSPDR-OH", "B2 bradykinin receptor (Homo sapiens)", 0),
    ("H-RPPGDSPFR-OH", "B2 bradykinin receptor (Homo sapiens)", 0),
    ("H-RPPGFSPFR-OH [BRADYKININ]", "B2 bradykinin receptor (Homo sapiens)", 1),
    ("H-RPPGFSPYR-OH", "B2 bradykinin receptor (Homo sapiens)", 1),
]

Test whether the substance `H-RPPGFSPAR-OH` records Relative affinity of 0.1% or higher.
0
